B1: HDV Ribozyme (parent)
chain: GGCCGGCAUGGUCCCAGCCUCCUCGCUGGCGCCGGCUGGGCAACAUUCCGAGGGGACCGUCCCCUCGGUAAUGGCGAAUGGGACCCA

Variants of: B1
ASSAY_PROTOCOL: self-cleavage, relative activity (ratio to wild type); higher = more cleavage; co-transcriptional
Field: self-cleavage. Provide a value for each of the variants that follow.
Please give the numeric answer without any surrounding text.

Could you please provide reported self-cleavage for G31C C44G ? Thanks!
0.135

Using known records, supply self-cleavage for C19A A42G
0.0811

Give the measured self-cleavage for U47A A71C
0.85

Please give the documented self-cleavage of A8G U46A
0.723

Identify self-cleavage associated with the variant A16U G34A
0.166

Identify the reported self-cleavage for the following entry. G5C C61G
0.287

Find the measured self-cleavage of C48A C63G and report it.
0.73

Output self-cleavage of C44G G54C
0.831

Consider the variant A8C C32G . State its measured self-cleavage.
0.185

In one line, give reported self-cleavage of the entry C19G C64A .
0.0528

Answer with the recorded self-cleavage for the variant listed here: A8U C22A
0.0923

Answer with the recorded self-cleavage for the variant listed here: C58U C64U
0.987

Look up and state reported self-cleavage for U20C A51U
0.185

For the variant U23C G31U , give its reported self-cleavage.
0.151

Give the measured self-cleavage for A43U C85G
0.609

Give the value of self-cleavage reported for the following: G29U U47C
0.19

Read the entry U20A C64G and write its reported self-cleavage.
0.0639

Name the recorded self-cleavage of the variant listed here: G25U U65G
0.269

Fill in reported self-cleavage for this entry: C61A A77C
0.527

Supply measured self-cleavage of U46C U65C in your reply.
1.2

State its self-cleavage for this variant: G28A U69A
0.166

Quickly give me recorded self-cleavage for C30G G68C
0.0906

Source listed as the RNAGym collection of RNA variant scans (doi:10.7554/elife.80360).
